B1: Caulobacter ParB omega fusion; a variant is named by its letters at X, in order, B8GW30 (parent)
chain: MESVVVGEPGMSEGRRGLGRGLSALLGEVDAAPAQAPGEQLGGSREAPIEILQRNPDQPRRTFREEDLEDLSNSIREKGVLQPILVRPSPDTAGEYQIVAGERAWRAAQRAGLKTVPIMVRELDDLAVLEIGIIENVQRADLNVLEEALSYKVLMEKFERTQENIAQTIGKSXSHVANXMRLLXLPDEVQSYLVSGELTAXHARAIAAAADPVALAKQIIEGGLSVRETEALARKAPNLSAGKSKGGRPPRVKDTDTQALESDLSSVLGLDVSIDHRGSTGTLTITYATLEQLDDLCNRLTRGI

Variants of: B1
Experiment: one-hybrid fitness for binding NBS DNA (the Noc-binding site; scaled: cognate 1, non-cognate 0); higher = stronger binding
Settings: with NBS DNA site
In all, about 81,000 sequences were measured (“one-hybrid fitness for binding NBS DNA”: median about -0.1, highest 2% from about 0.36 on). The list comes from a sample in which the highest values are over-represented; it also holds close analogues and randomly drawn sequences.
Each item that follows carries a reported one-hybrid fitness for binding NBS DNA.

{"columns": ["MUT", "one-hybrid fitness for binding NBS DNA"],
 "data": [
  ["QCRI", 0.407],
  ["PRAY", "≤ 0.2"],
  ["NSTM", "≤ 0.2"],
  ["QQPP", "≤ 0.2"],
  ["PTAP", "≤ 0.2"],
  ["QSHT", 0.429],
  ["QKKE", 0.283],
  ["VVRW", "≤ 0.2"],
  ["QKVQ", 0.268],
  ["RYYS", 0.371],
  ["VRMV", "≤ 0.2"],
  ["RYHN", "≤ 0.2"],
  ["DAAG", "≤ 0.2"],
  ["QHHK", "≤ 0.2"],
  ["EMRQ", "≤ 0.2"],
  ["RYCH", "≤ 0.2"],
  ["PQEL", "≤ 0.2"],
  ["QTTS", 0.528],
  ["IQNI", "≤ 0.2"],
  ["QSRI", 0.338],
  ["WPLC", "≤ 0.2"],
  ["QFPN", "≤ 0.2"],
  ["IDNI", 0.591],
  ["QKKD", 0.211],
  ["QHHT", 0.419],
  ["QKVH", "≤ 0.2"],
  ["QKHQ", "≤ 0.2"],
  ["QKKH", 0.619],
  ["MATS", "≤ 0.2"],
  ["QKKI", 0.337],
  ["QCGI", "≤ 0.2"],
  ["QTTN", 0.236],
  ["RYNS", 0.497],
  ["QTTD", "≤ 0.2"],
  ["HFFC", "≤ 0.2"],
  ["QKKP", 0.26],
  ["IDCI", "≤ 0.2"],
  ["MVLL", "≤ 0.2"],
  ["QPRI", "≤ 0.2"],
  ["QKKG", 0.332],
  ["QRRI", 0.43],
  ["QQPN", "≤ 0.2"],
  ["QQIR", 0.435],
  ["INGE", "≤ 0.2"],
  ["QSGI", "≤ 0.2"],
  ["QAHF", "≤ 0.2"]
]}
